Parameter remaining activity at 10 µM: see the listing below.
experimental-target: TNS3 (Homo sapiens, UniProt Q68CZ2)
Construct: made in house; host or cells: HEK293 (transient transfection), unpurified extract
Sequence (Q68CZ2 whole entry): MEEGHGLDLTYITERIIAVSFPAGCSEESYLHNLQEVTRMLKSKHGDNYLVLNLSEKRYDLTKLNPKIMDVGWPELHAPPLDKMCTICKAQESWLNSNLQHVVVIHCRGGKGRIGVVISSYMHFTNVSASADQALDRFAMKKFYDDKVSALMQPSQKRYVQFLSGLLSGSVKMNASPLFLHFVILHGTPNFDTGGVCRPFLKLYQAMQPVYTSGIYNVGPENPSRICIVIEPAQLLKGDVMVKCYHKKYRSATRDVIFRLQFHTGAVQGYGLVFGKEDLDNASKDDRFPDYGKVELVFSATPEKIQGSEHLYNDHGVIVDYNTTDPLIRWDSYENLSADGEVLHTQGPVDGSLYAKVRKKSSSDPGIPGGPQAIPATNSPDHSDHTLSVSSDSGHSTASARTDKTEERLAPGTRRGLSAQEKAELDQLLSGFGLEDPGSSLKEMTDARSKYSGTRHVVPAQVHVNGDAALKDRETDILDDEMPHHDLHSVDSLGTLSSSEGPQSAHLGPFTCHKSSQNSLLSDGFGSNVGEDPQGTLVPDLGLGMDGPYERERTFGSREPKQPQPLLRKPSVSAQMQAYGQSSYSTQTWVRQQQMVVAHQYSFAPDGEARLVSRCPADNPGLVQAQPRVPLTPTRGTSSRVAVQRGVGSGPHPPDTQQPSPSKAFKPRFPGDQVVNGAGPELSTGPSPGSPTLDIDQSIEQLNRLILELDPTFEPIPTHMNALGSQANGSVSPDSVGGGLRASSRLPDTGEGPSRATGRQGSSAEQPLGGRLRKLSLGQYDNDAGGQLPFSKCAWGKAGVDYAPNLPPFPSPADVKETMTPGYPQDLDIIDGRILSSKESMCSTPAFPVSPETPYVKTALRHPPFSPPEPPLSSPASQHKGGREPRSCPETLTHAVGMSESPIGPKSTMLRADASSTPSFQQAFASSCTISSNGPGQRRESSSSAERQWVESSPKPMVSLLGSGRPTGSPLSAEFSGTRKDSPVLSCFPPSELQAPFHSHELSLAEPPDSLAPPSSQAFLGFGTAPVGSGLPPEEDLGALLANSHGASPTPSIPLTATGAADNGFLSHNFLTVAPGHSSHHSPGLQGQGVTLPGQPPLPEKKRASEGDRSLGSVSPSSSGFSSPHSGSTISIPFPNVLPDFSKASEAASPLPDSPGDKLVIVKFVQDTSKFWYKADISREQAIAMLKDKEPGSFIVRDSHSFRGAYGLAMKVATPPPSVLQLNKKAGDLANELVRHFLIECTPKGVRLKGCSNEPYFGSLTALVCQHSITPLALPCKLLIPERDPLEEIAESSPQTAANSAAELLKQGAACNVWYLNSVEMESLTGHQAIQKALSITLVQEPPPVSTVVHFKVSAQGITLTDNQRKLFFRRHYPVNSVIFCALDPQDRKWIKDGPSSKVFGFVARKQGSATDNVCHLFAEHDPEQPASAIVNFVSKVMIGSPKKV
protocol: biochemical
Assay type: binding
study-conditions: read-out: percent of DMSO vehicle control
Non-standard residues stand in square brackets, D forms with d. Residues, ends and D or L forms follow the SMILES beside them. *: point of attachment. pY = N[C@@H](Cc1ccc(OP(=O)(O)O)cc1)C(=O)O; Caffeoyl = O=C(/C=C/c1ccc(O)c(O)c1)*
endpoint-label: remaining activity at 10 µM (%)

compound	endpoint-label	recorded-value
CC[C@H](C)[C@H](NC(=O)[C@H](CCC(=O)O)NC(=O)[C@H](CCC(=O)O)NC(=O)[C@H](Cc1ccc(OP(=O)(O)O)cc1)NC(=O)/C=C/c1ccc(O)c(O)c1)C(=O)N[C@@H](CCC(=O)O)C(=O)O [Caffeic acid-pYEEIE] (Caffeoyl-[pY]EEIE-OH)	remaining activity at 10 µM	1.8
CC(=O)N[C@@H](Cc1ccc(CP(=O)(O)O)cc1)C(=O)NC1(C(=O)N[C@@H](CC(N)=O)C(=O)NCCCc2c(O)ccc3ccccc23)CCCCC1	remaining activity at 10 µM	9.8
CC(=O)N1CC[C@H]2CC[C@@H](C(=O)N[C@@H](CCC(N)=O)C(=O)NC(c3ccccc3)c3ccccc3)N2C(=O)[C@@H](NC(=O)c2cc3cc(C(F)(F)P(=O)(O)O)ccc3[nH]2)C1	remaining activity at 10 µM	128
NC(=O)CC[C@H](NC(=O)[C@@H]1CC[C@@H]2CCN(C(=O)CCCCCC#Cc3cccc4c3CN(C3CCC(=O)NC3=O)C4=O)C[C@H](NC(=O)c3cc4cc(C(F)(F)P(=O)(O)O)ccc4[nH]3)C(=O)N21)C(=O)NC(c1ccccc1)c1ccccc1 (stereo partly shown)	remaining activity at 10 µM	57.6

----------
Quick reference: remaining activity at 10 µM of the listed items.
experimental-target: STAP2 (Homo sapiens)
Construct: made in house; host or cells: HEK293 (transient transfection), unpurified extract
Sequence (Q9UGK3 whole entry): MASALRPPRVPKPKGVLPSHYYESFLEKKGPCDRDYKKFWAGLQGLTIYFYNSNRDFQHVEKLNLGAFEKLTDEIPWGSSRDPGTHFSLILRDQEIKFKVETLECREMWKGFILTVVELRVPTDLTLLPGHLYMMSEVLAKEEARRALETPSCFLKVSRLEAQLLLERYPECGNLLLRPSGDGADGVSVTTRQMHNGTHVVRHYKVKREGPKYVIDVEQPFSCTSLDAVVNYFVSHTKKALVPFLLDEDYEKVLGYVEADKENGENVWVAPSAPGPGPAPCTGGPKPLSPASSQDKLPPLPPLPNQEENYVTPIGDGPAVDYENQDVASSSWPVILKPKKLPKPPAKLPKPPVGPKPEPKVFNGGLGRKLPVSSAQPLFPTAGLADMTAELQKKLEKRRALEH
protocol: biochemical
Type: binding
study-conditions: primary screen, 10 μM; read-out: percent of DMSO vehicle control

molecule	remaining activity at 10 µM / %
CC(C)(C)[C@H](NC(=O)/C=C/c1ccc(OP(=O)(O)O)cc1)C(=O)N1CCC[C@H]1C(=O)N(c1ccccc1)c1ccc(I)cc1 [STAT6-IN-3]	56.9
C/C(=C\C(=O)N[C@H](C(=O)N1CCC[C@H]1C(=O)N(c1ccccc1)c1ccc(I)cc1)C(C)(C)C)c1ccc(OP(=O)(O)O)cc1 [STAT6-IN-1]	58.4
O=C(CCl)Nc1cccc(CNC(=O)[C@H](Cc2ccc(OP(=O)(O)O)cc2)NC(=O)Cc2ccc(F)cc2)c1 [MN551]	143
O=C(COc1ccc2cc(C(=O)Nc3ccccc3)ccc2c1)NCc1ccc(OP(=O)(O)O)c(OP(=O)(O)O)c1 [Stafib-1]	78.7

----------
experimental-target: NCK2 (Homo sapiens)
Construct: the DNA-tagged SH2 domain concentrations used in this study were <0.1 nM; made in house; host or cells: HEK293 (transient transfection, unpurified extract)
Sequence (O43639 285-380 limits assumed): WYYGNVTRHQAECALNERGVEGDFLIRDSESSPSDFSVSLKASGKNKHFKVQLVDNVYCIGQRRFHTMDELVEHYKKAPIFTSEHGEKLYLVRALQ
protocol: biochemical
Format: binding
study-conditions: primary screen, 10 μM; read-out: percent of DMSO vehicle control
Recorded remaining activity at 10 µM, one value per entry.

compound	remaining activity at 10 µM
C/C(=C\C(=O)N[C@H](C(=O)N1CCC[C@H]1C(=O)N(c1ccccc1)c1ccc(I)cc1)C(C)(C)C)c1ccc(OP(=O)(O)O)cc1 [STAT6-IN-1]	66.2%
CC(C)(C)[C@H](NC(=O)/C=C/c1ccc(OP(=O)(O)O)cc1)C(=O)N1CCC[C@H]1C(=O)N(c1ccccc1)c1ccc(I)cc1 [STAT6-IN-3]	102%
O=C(COc1ccc2cc(C(=O)Nc3ccccc3)ccc2c1)NCc1ccc(OP(=O)(O)O)c(OP(=O)(O)O)c1 [Stafib-1]	91.4%
O=C(CCl)Nc1cccc(CNC(=O)[C@H](Cc2ccc(OP(=O)(O)O)cc2)NC(=O)Cc2ccc(F)cc2)c1 [MN551]	81.5%
